The origin of these recorded values is patent US20090247495A1.

# Tested on: Panc-1
# testName: MTT cell cytotoxicity assay, Panc-1
# Format: cell-based
# assayConditions: Homo sapiens, read-out: IC50 (dose used for western blot)
measuredProperty: IC50 (nM)
Numbers only, in nM.

Give the measured IC50 of CC(=O)OC(C)(C)/C=C/C(=O)[C@](C)(O)C1[C@H](O)C[C@@]2(C)C3CC=C4C(C[C@H](O)C(=O)C4(C)C)[C@]3(C)C(=O)C[C@]12C (stereo partly shown) . 800
